# key: entry, value: pIC50
# study_target: papain (Carica papaya, UniProt P00784)
# Sequence (P00784 134-345): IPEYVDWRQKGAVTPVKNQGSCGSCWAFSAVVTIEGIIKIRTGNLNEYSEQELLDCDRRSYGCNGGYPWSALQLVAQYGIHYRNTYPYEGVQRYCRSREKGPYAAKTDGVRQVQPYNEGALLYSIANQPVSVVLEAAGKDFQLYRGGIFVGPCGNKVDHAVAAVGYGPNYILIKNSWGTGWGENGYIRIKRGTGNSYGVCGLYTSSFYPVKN
# assay_comment: Assay of inhibition of papain (N-CBZ-Pro-Phe-Arg-pNA substrate)
# Assay type: biochemical
pIC50: −log10 of the molar value.
readout_kind: pIC50

molecule: CC(=O)O[C@@H]1NC(=O)[C@H]1NC(=O)[C@H](CC(C)C)NC(=O)OCc1ccccc1
study_target: papain (Carica papaya, UniProt P00784)
relational_operator: =
value_measured: 6.14
--
molecule: CON1C[C@H](NC(=O)[C@H](Cc2ccccc2)NC(=O)OCc2ccccc2)C1=O
study_target: papain (Carica papaya, UniProt P00784)
relational_operator: <
value_measured: 4.20
--
molecule: C[C@H]1[C@H](NC(=O)CNC(=O)[C@H](Cc2ccccc2)NC(=O)OCc2ccccc2)C(=O)N1S(=O)(=O)O
study_target: papain (Carica papaya, UniProt P00784)
relational_operator: <
value_measured: 4.60
--
molecule: N[C@@H](Cc1ccc(O[C@@H]2NC(=O)[C@H]2NC(=O)[C@H](Cc2ccccc2)NC(=O)CCc2ccccc2)cc1)C(=O)O [Example 29B]
study_target: papain (Carica papaya, UniProt P00784)
relational_operator: =
value_measured: 6.43

###

# study_target: Cathepsin L (Rattus norvegicus, UniProt P07154)
# Sequence (P07154 114-334): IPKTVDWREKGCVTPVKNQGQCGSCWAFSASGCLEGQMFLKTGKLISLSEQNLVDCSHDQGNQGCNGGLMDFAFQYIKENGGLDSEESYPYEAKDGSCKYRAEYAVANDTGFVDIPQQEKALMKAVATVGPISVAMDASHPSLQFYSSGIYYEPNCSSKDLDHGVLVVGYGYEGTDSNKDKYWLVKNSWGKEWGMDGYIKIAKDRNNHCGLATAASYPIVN
# assay_comment: Assay of inhibition of Cathepsin L (N-CBZ-Phe-Arg-AMC substrate)
# Format: biochemical
# measurement_setup: r rat CathL, pH5.0, 10 min preincubation at room temperature; read-out: IC50, Cathepsin L
pIC50: −log10 of the molar value.
# key: entry, value: pIC50

molecule: CC(=O)O[C@H]1[C@H](NC(=O)[C@H](Cc2ccccc2)NC(=O)OCc2ccccc2)C(=O)N1S(=O)(=O)O
study_target: Cathepsin L (Rattus norvegicus, UniProt P07154)
pIC50: 7.59

molecule: N[C@@H](Cc1ccccc1)C(=O)N[C@@H]1C(=O)N[C@H]1Oc1ccc(C(=O)O)cc1 [Example 30B]
study_target: Cathepsin L (Rattus norvegicus, UniProt P07154)
pIC50: 5.28

molecule: CC(=O)O[C@@H]1NC(=O)[C@H]1NC(=O)[C@H](Cc1ccccc1)NC(=O)CCN1CCOCC1
study_target: Cathepsin L (Rattus norvegicus, UniProt P07154)
pIC50: 5.64

molecule: O=C(N[C@@H](Cc1ccccc1)C(=O)N[C@@H]1C(=O)N[C@H]1Sc1ccncc1)OCc1ccccc1
study_target: Cathepsin L (Rattus norvegicus, UniProt P07154)
pIC50: 7.77

###

# study_target: Cathepsin B (Rattus norvegicus, UniProt P00787)
# Sequence (P00787 80-339): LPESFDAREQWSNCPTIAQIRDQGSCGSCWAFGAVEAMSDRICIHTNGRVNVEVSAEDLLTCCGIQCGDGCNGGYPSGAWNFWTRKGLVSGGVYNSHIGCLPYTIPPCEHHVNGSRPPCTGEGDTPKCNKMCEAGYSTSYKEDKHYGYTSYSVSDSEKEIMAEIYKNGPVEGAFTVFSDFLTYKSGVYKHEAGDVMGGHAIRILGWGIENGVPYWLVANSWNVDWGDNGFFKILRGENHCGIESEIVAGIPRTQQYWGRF
# assay_comment: In vitro assay of inhibition of Cathepsin B (N-CBZ-Phe-Arg-AMC substrate)
# Format: biochemical
# measurement_setup: r rat CathB, pH5.1, 10 min preincubation at room temperature; read-out: IC50, Cathepsin B
pIC50: −log10 of the molar value.
Give YES when the value for pIC50 is at least 5. Give NO when it is less.

compound: CON1C[C@H](NC(=O)[C@H](Cc2ccccc2)NC(=O)OCc2ccccc2)C1=O
label_value: NO

compound: CC(=O)O[C@@H]1NC(=O)[C@H]1NC(=O)[C@H](Cc1ccccc1)NS(=O)(=O)c1ccc(C(C)(C)C)cc1
label_value: YES

compound: CC(=O)O[C@@H]1NC(=O)[C@H]1NC(=O)[C@H](Cc1ccccc1)NC(=O)c1cc2ccccc2o1
label_value: YES

compound: CC(=O)Oc1ccc(OCC(=O)N[C@@H](Cc2ccccc2)C(=O)N[C@@H]2C(=O)N[C@H]2OC(C)=O)cc1
label_value: YES

compound: CC(=O)O[C@@H]1NC(=O)[C@H]1NC(=O)[C@H](Cc1ccccc1)NC(=O)CCN1CCOCC1
label_value: NO

compound: CC(=O)O[C@@H]1NC(=O)[C@H]1NC(=O)[C@H](Cc1ccccc1)NC(=O)CCc1ccccc1
label_value: YES

compound: CC(=O)O[C@H]1[C@H](NC(=O)[C@H](Cc2ccccc2)NC(=O)OCc2ccccc2)C(=O)N1S(=O)(=O)O
label_value: YES

compound: O=C(CCc1ccccc1)N[C@@H](Cc1ccccc1)C(=O)N[C@@H]1C(=O)N[C@H]1Oc1cccc(C(=O)O)c1
label_value: YES

compound: O=C(CCc1ccccc1)N[C@@H](Cc1ccccc1)C(=O)N[C@@H]1C(=O)N[C@H]1Oc1ccc(C(=O)O)cc1 [Example 27B]
label_value: NO

compound: O=C(N[C@@H](Cc1ccccc1)C(=O)N[C@H]1CNC1=O)OCc1ccccc1
label_value: YES

compound: N[C@@H](Cc1ccc(O[C@@H]2NC(=O)[C@H]2NC(=O)[C@H](Cc2ccccc2)NC(=O)CCc2ccccc2)cc1)C(=O)O [Example 29B]
label_value: NO

compound: CC(=O)N[C@@H](Cc1ccccc1)C(=O)N[C@@H]1C(=O)N[C@H]1OC(C)=O
label_value: NO

compound: CC(=O)O[C@@H]1NC(=O)[C@H]1NC(=O)[C@H](Cc1ccccc1)NC(=O)/C=C/c1cccs1
label_value: YES

compound: CC(=O)O[C@@H]1NC(=O)[C@H]1NC(=O)[C@H](Cc1ccccc1)NC(=O)CCc1cccnc1
label_value: NO

compound: CON1C[C@@H](NC(=O)[C@H](Cc2ccccc2)NC(=O)OCc2ccccc2)C1=O
label_value: NO

compound: O=C(CCc1ccccc1)N[C@@H](Cc1ccccc1)C(=O)N[C@@H]1C(=O)N[C@H]1Oc1ccccc1
label_value: YES

compound: CC(C)C[C@H](NC(=O)[C@H]1O[C@@H]1C(=O)O)C(=O)NCCCCN=C(N)N [Example E-64, reference compound]
label_value: YES

compound: O=C(CCc1ccccc1)N[C@@H](Cc1ccccc1)C(=O)N[C@@H]1C(=O)N[C@H]1Oc1ccc(C[C@H](NC(=O)OCc2ccccc2)C(=O)OC(c2ccccc2)c2ccccc2)cc1 [Example 29A]
label_value: YES

compound: C[C@H]1[C@H](NC(=O)CNC(=O)[C@H](Cc2ccccc2)NC(=O)OCc2ccccc2)C(=O)N1S(=O)(=O)O
label_value: NO

compound: CC(=O)O[C@@H]1NC(=O)[C@H]1NC(=O)[C@H](C)NC(=O)OCc1ccccc1
label_value: NO

compound: O=C(N[C@@H](Cc1ccccc1)C(=O)N[C@@H]1C(=O)N[C@H]1Sc1ccncc1)OCc1ccccc1
label_value: YES

compound: N[C@@H](Cc1ccccc1)C(=O)N[C@@H]1C(=O)N[C@H]1Oc1ccc(C(=O)O)cc1 [Example 30B]
label_value: NO

compound: C[C@H]1[C@H](NC(=O)[C@H](Cc2ccccc2)NC(=O)OCc2ccccc2)C(=O)N1S(=O)(=O)O
label_value: NO
